Biological target: Cytochrome P450 2D6 (Homo sapiens, UniProt P10635)
Sequence (P10635 whole entry): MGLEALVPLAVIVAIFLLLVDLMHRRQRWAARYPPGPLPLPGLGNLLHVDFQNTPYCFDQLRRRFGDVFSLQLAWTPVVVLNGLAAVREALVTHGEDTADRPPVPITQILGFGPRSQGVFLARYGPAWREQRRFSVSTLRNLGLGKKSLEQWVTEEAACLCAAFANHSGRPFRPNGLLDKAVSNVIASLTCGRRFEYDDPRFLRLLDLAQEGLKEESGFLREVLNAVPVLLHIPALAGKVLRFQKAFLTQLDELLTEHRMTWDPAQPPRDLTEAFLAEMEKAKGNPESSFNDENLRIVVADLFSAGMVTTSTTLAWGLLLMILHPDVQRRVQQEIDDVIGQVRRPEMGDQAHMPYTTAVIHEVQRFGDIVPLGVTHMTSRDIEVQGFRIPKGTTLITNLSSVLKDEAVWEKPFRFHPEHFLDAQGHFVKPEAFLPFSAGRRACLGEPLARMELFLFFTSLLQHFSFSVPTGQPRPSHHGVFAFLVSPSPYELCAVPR

{"STRUCTURE SMILES": "O=C(O)CNC(=O)c1ncc(C#CCOc2ccc(Cl)cc2)cc1O", "TARGET": "Cytochrome P450 2D6 (Homo sapiens, UniProt P10635)", "IC50": "> 30 µM"}

* * *

Experiment: Half-life in mouse hepatocytes at 100 uM incubated up to 120 mins by LC-MS/MS analysis
Type: ADME, cell-based, Hepatocyte

{"STRUCTURE SMILES": "O=C(O)CNC(=O)c1ncc(C#CCOc2ccc(Cl)cc2)cc1O", "half-life at 100 µM (min)": 8.68}
